# Test system: rodent lifetime carcinogenesis bioassay, tumor incidence TD50
# test-summary: carcinogenic potency in animals, long-term in vivo studies, CPDB compilation (AID 1745844)
# condition: rat; strain Fischer 344; males; by gavage; site: liver; lesion: hepatocellular carcinoma; dosed 30 weeks; study length 108 weeks
experimental-readout: TD50

State its TD50 for this molecule: `CCCCN(CCCC)N=O` 0.691 mg/kg/day

====

Please provide measured TD50 for the entries that follow.
# Tested on: rodent lifetime carcinogenesis bioassay, tumor incidence TD50
# test-summary: carcinogenic potency in animals, long-term in vivo studies, CPDB compilation (AID 1745844)
# condition: mouse; strain B6C3F1; females; in feed; site: lung; lesion: alveolar/bronchiolar adenoma + alveolar/bronchiolar carcinoma; dosed 80 weeks; study length 92 weeks
Unit mg/kg/day implied. Number only.

Look up rodent lifetime carcinogenesis bioassay, tumor incidence TD50 data: TD50 of `COP(=O)(OC)OC(=CCl)c1cc(Cl)c(Cl)cc1Cl` , then report it. 7790

Look up rodent lifetime carcinogenesis bioassay, tumor incidence TD50 data: TD50 of ClC1C2(Cl)C3C4C5OC5C5C4C1(Cl)C(Cl)(C53)C2(Cl)Cl (configuration not stated) , then report it. 6.78

====

# System: rodent lifetime carcinogenesis bioassay, tumor incidence TD50
# test-summary: carcinogenic potency in animals, long-term in vivo studies, CPDB compilation (AID 1745844)
# condition: rat; strain Sprague-Dawley; females; i.p.; site: any site (literature study); lesion: malignant tumor; dosed 104 weeks; study length 104 weeks
Active and inactive are the calls of the source. How the calls were made is not given here.
experimental-readout: TD50

State its TD50 for this compound: CCC1C(=O)OCC1Cc1cncn1C (stereo unspecified) 98.4 mg/kg/day (inactive)

====

# Tested on: rodent lifetime carcinogenesis bioassay, tumor incidence TD50
# test-summary: carcinogenic potency in animals, long-term in vivo studies, CPDB compilation (AID 1745844)
# condition: mouse; strain Charles River CD1; males; inhaled; site: liver; lesion: hepatocellular carcinoma; dosed 104 weeks; study length 105 weeks
experimental-readout: TD50
Form field: result (number plus unit)

State its TD50 for this compound: `C=Cc1ccccc1` 2860 mg/kg/day

====

# Test system: rodent lifetime carcinogenesis bioassay, tumor incidence TD50
# test-summary: carcinogenic potency in animals, long-term in vivo studies, CPDB compilation (AID 1745844)
# condition: hamster; strain Syrian Golden; females; in drinking water; site: forestomach; lesion: papilloma; dosed 121 weeks; study length 121 weeks
The source made the active and inactive calls. The rule behind the calls is not given here.
experimental-readout: TD50

State its TD50 for this compound: `NNC(=O)c1ccncc1` 575 mg/kg/day (inactive)

====

# System: rodent lifetime carcinogenesis bioassay, tumor incidence TD50
# test-summary: carcinogenic potency in animals, long-term in vivo studies, CPDB compilation (AID 1745844)
# condition: rat; strain Fischer 344; males; in feed; site: thyroid gland; lesion: malignant tumor; dosed 103 weeks; study length 103 weeks
experimental-readout: TD50

State its TD50 for this compound: `O=c1cc[nH]c(=S)[nH]1` 8.05 mg/kg/day

====

# Tested on: rodent lifetime carcinogenesis bioassay, tumor incidence TD50
# test-summary: carcinogenic potency in animals, long-term in vivo studies, CPDB compilation (AID 1745844)
# condition: rat; strain Fischer 344; males; by gavage; site: stomach, glandular; lesion: one or several types; types not named; dosed 30 weeks; study length 104 weeks
experimental-readout: TD50

Look up rodent lifetime carcinogenesis bioassay, tumor incidence TD50 data: TD50 of `NC(=O)N(CCCO)N=O` , then report it. 0.888 mg/kg/day
